Test system: HIV-1 Ba-L
Test: Antiviral activity of additional compounds (Tables 6 and 7)
Format: cell-based
Settings: Human immunodeficiency virus 1, BAL
pIC50: −log10 of the molar value.
QUANTITY_MEASURED: pIC50

Requested read-out: pIC50. Entry: CC(=O)NCC(=O)NCc1ccc(C(=O)N2CCN(C)CC2)cc1 [CMPD-41]
< 4.00

Entry under review: CN1CCN(C(=O)c2ccc(CNC(=O)CNC(=O)COc3ccc(Cl)cc3)cc2)CC1 [CMPD-42] . Reported pIC50?
< 4.00

Dear colleague, I am looking for the recorded pIC50 of the following compound: O=C(CNC(=O)COc1ccccc1)NCc1cccc(Cl)c1 [CMPD-39]
< 4.00

Batch of 3 compounds: report pIC50 for each.
1. CN1CCN(C(=O)c2ccc(CNC(=O)CNC(=O)COc3ccc(C(F)(F)F)cc3)cc2)CC1 [CMPD-44]
2. COc1ccc(OCC(=O)NCC(=O)NCc2ccc(C(=O)N3CCCCC3)cc2)cc1 [CMPD-47]
3. CC(=O)NCC(=O)NCc1ccc(C(=O)N2CCCCC2)cc1 [CMPD-45]

< 4.00
4.29
< 4.00

Parameter requested: pIC50. Apply to each item below.
1. COc1ccc(CNC(=O)CNC(=O)COc2ccccc2)cc1 [CMPD-36]
2. COc1ccc(OCC(=O)NCC(=O)NCc2ccc(C(=O)N3CCN(C)CC3)cc2)cc1 [CMPD-43]
3. O=C(CNC(=O)COc1ccc(C(F)(F)F)cc1)NCc1ccc(C(=O)N2CCCCC2)cc1 [CMPD-48]

["< 4.00", "< 4.00", 4.69]

----------
Tested on: HIV-1 92BR030
Test: Anti-HIV efficacy in human PBMCs, reverse transcriptase activity
Type: cell-based
Conditions: HIV-1 92BR030, PBMCs
Provide the recorded Antiviral index (TC50/IC50) for the entries that follow.

Some molecules with known Antiviral index (TC50/IC50) results, for comparison:
What value of Antiviral index (TC50/IC50) has been recorded for this entry: O=C(CNC(=O)COc1ccccc1)NCc1ccc(C(=O)N2CCCCC2)cc1
> 4.51

Any idea what Antiviral index (TC50/IC50) was measured for CCOc1ccc(NC(=O)Cc2cn3ccsc3n2)cc1S(=O)(=O)N1CCCCC1 ?
3.95

Form field: reported Antiviral index (TC50/IC50) of COc1ccccc1-c1noc(=O)n1-c1cccc(C(F)(F)F)c1 [ITI-367, reference compound]
>2.13

# ---- query molecule ----
# get_value(readout='Antiviral index (TC50/IC50)', item= Cc1ccc(NC(=O)CN2CCN(Cc3nc(-c4ccc(F)cc4)no3)CC2)cc1 )
> 10.72

----------
Tested on: PBMCs
Experiment: Compound cytotoxicity in PBMCs (MTS)
Format: cell-based, human
Settings: Tables 6 and 7 study; read-out: TC50 (the source's name)
QUANTITY_MEASURED: CC50

Can you look up the measured CC50 of O=C(CNC(=O)COc1ccccc1)NCc1ccc(C(=O)N2CCCCC2)cc1 for me?
> 100 µM

----------
Record form. Attribute: CC50 at 7 days. Fill in for each entry.
Experiment: Compound cytotoxicity in PBMCs (MTS)
Type: cell-based, human
Settings: human; Tables 6 and 7 study; read-out: TC50

Below, 4 molecules whose answers are already recorded.
Quick one: CC50 at 7 days of O=C(CNC(=O)COc1ccc(C(F)(F)F)cc1)NCc1ccc(C(=O)N2CCCCC2)cc1 [CMPD-48] ?
> 100 µM

Which value of CC50 at 7 days has been reported for COc1ccc(OCC(=O)NCC(=O)NCc2ccc(C(=O)N3CCCCC3)cc2)cc1 [CMPD-47] in the records?
73.1 µM

Consider the molecule shown here: O=C(CNC(=O)COc1ccccc1)NCc1ccc(C(F)(F)F)cc1 [CMPD-37] What is its recorded CC50 at 7 days?
> 100 µM

Consider the molecule O=C(CNC(=O)COc1ccccc1)NCc1ccc(Cl)cc1 [CMPD-35] and give its measured CC50 at 7 days.
> 100 µM

Next molecule, CC50 at 7 days to be filled in.
What CC50 at 7 days value was documented for this molecule, CC(=O)NCC(=O)NCc1ccc(C(=O)N2CCN(C)CC2)cc1 [CMPD-41] ?
> 100 µM

----------
Test system: HIV-1 NL4-3
Test: Antiviral activity of additional compounds (Tables 6 and 7)
Assay type: cell-based
Hi there, I'd appreciate the recorded Antiviral index (TC50/IC50) for every entry that follows.

Consider the reported Antiviral index (TC50/IC50) for these compounds:
What is its Antiviral index (TC50/IC50) for HIV-1 NL4-3? Entry: O=C(CNC(=O)COc1ccccc1)NCc1ccc(C(=O)N2CCCCC2)cc1 [CMPD-14]
> 2.53

State its Antiviral index (TC50/IC50) on HIV-1 NL4-3: COc1ccc(OCC(=O)NCC(=O)NCc2ccc(C(=O)N3CCCCC3)cc2)cc1 [CMPD-47]
1.39

HIV-1 NL4-3 / Antiviral index (TC50/IC50) / O=C(CNC(=O)COc1ccc(Cl)cc1)NCc1ccc(C(=O)N2CCCCC2)cc1 [CMPD-46] : value?
> 1.28

Next:
Give recorded Antiviral index (TC50/IC50) with HIV-1 NL4-3 for the following compound: O=C(CNC(=O)COc1ccc(C(F)(F)F)cc1)NCc1ccc(C(=O)N2CCCCC2)cc1 [CMPD-48]
> 4.45

----------
So I've got a bunch of molecules here, and I need their IC50 values.
Tested on: HIV-1 Ba-L
Assay: Antiviral activity of additional compounds (Tables 6 and 7)
Assay type: cell-based
Conditions: Human immunodeficiency virus 1, BAL
Protocol: HIV human peripheral blood mononuclear cell (PBMC) assays were performed as described previously (Lanier et al., 2010, Antimicrob Agents Chemother 54:2901-2909 and Ptak et al., 2008, Antimicrob Agents Chemother 52:1302-1317). […] Following removal of supernatant samples, compound cytotoxicity was measured by the addition of 3-(4,5-dimethylthiazol-2-yl)-5-(3-carboxymethoxy-phenyl)-2-(4-sulfophenyl)-2H-tetrazolium (MTS; CellTiter 96 reagent; Promega) by following the manufacturer's instructions.

Solved cases (5 shown):
So what does the record say about IC50 for O=C(CNC(=O)COc1ccccc1)NCc1ccccc1 [CMPD-38, N-benzyl-2-(2-phenoxyacetamido)acetamide] ?
> 100 µM

State the recorded IC50 for this entry: O=C(CNC(=O)COc1ccc(Cl)cc1)NCc1ccc(C(=O)N2CCCCC2)cc1
72.6 µM

Suppose we examine the molecule O=C(CNC(=O)COc1ccccc1)NCc1ccc(C(=O)N2CCCCC2)cc1 ; what IC50 value has been reported?
32 µM

Please look up its IC50: O=C(CNC(=O)COc1ccccc1)NCc1ccc(C(F)(F)F)cc1
> 100 µM

Consider the molecule O=C(CNC(=O)COc1ccccc1)NCc1ccc(Cl)cc1 and give its measured IC50.
> 100 µM

Turning now to a further record.
Consider the molecule shown here: CN1CCN(C(=O)c2ccc(CNC(=O)CNC(=O)COc3ccccc3)cc2)CC1 What is its recorded IC50?
> 100 µM
